Target: SARS-CoV nsp14 (Severe acute respiratory syndrome coronavirus)
IC50 vs 1 µM: less than gives t; not less than gives f.

compound="CCOC1C(C#N)=C(O)OC2=C1c1sc(=S)n(-c3ccccc3)c1CC2 (centres unmarked) [Compound 20b]" label_class=f
compound="N#CC1=C(N)OC2=C(c3sc(N)c(C#N)c3CC2)C1c1ccccc1 (centres unmarked)" label_class=f
compound="CCOC(=O)c1c(N)sc2c1CCc1c-2sc(=S)n1-c1ccccc1 [Compound 21b]" label_class=f
compound=O=C1CCc2c(sc(=S)n2-c2ccccc2)C1 label_class=f
compound="CCOC(=O)C1=C(N)OC2=C(c3sc(=S)n(-c4ccccc4)c3CC2)C1c1ccccc1 (centres unmarked) [Compound 23c]" label_class=f
compound="CCOC1C(C#N)=C(N)OC2=C1c1sc(=S)n(-c3ccccc3)c1CC2 (centres unmarked) [Compound 20a]" label_class=f
compound="COc1ccc(C2C(C#N)=C(N)OC3=C2c2sc(N)c(C#N)c2CC3)cc1 (centres unmarked)" label_class=t
compound="COc1ccc(C2C(C#N)=C(N)OC3=C2CC(=O)CC3)cc1 (centres unmarked)" label_class=f
compound="N#Cc1c(N)sc2c1CCc1c-2sc(=S)n1-c1ccccc1 [Compound 21a]" label_class=f
compound="CCOC(=O)c1c(N)sc2c1CCC1=C2C(c2ccccc2)C(C#N)=C(N)O1 (centres unmarked)" label_class=f
compound="CCOC(=O)c1c(N)sc2c1CCC1=C2C(c2ccc(OC)cc2)C(C#N)=C(N)O1 (centres unmarked)" label_class=f
compound="CCOC(=O)C1=C(N)OC2=C(c3sc(=S)n(-c4ccccc4)c3CC2)C1c1ccc(Cl)cc1 (centres unmarked) [Compound 23d]" label_class=t
compound="CCOC(=O)CSC(Nc1ccccc1)=C1C(=O)CCC2=C1C(c1ccccc1Cl)C(C#N)=C(N)O2 (centres unmarked)" label_class=t
compound="N#CC1=C(N)OC2=C(c3sc(=S)n(-c4ccccc4)c3CC2)C1c1ccccc1 (centres unmarked) [Compound 23a]" label_class=f
compound="N#CC1=C(N)OC2=C(c3sc(=S)n(-c4ccccc4)c3CC2)C1c1ccc(Cl)cc1 (centres unmarked) [Compound 23b]" label_class=t
compound="N#CC1=C(N)OC2=C(CC(=O)CC2)C1c1ccccc1Cl (centres unmarked)" label_class=t
compound="CC1=CSC(=C2C(=O)CCC3=C2C(c2ccccc2Cl)C(C#N)=C(N)O3)N1c1ccccc1 (centres unmarked)" label_class=f
